Test system: CEM cells HIV-1 protection, formazan growth assay
Assay name: NCI AIDS Antiviral Assay;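 active = compounds giving half or more protection of infected cells from virus-caused growth loss, again on retest; inactive = the rest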
Give one outcome, nothing more. List: active, inactive

Solved cases (5 shown):
Compound | Class
Cc1c2oc(=O)cc(-c3ccccc3)c2cc2c(=O)ccoc12 | inactive
O=C1OC2C3Cc4ccccc4N2C1C3 (stereo unspecified) | inactive
COC(=O)c1cc2ccccc2c(=O)s1 | inactive
C=C(C)COc1cc(NC(=S)OC(C)C)ccc1Cl | active
O=C1CSC(c2c[nH]c3ccccc23)N1c1ccccc1[N+](=O)[O-] (stereo unspecified) | inactive

Prompt: Write down the call the test reported for this compound. Item: O=C1C(Cl)C(c2cccc([N+](=O)[O-])c2)N1n1cnc2ccccc2c1=O (stereo unspecified)
Response: inactive

Prompt: Next entry: Cc1c(C(=O)c2ccccc2)n(COCCC[Se]c2ccccc2)c(=O)[nH]c1=O
Response: inactive

Prompt: Next entry: O=C(O)Cc1ccc(Nc2nc3cc(C(F)(F)F)ccc3nc2C(=O)O)cc1
Response: inactive

Prompt: Next entry: Cc1ccccc1N1C(=O)C(=O)c2cccc(C)c21
Response: inactive

Prompt: Next entry: Cc1cn(C2CC(NC(=O)N(C)O)C(CO)O2)c(=O)[nH]c1=O (stereo unspecified)
Response: inactive

Prompt: Next entry: O=C(c1ccc(Cl)cc1)c1ccc(OCCCCCCCCCCOc2ccc(C(=O)c3ccc(Cl)cc3)cc2)cc1
Response: inactive

Data credit: PubChem BioAssay AID179
